These measurements were taken from patent US9023340B2.

Tested on: Wnt signaling
Test: Wnt assay (Super TOPflash/Wnt3a dual-luciferase reporter in 293T cells)
Type: cell-based
Settings: Homo sapiens, HEK-293T, TOPflash luciferase normalized to renilla
Protocol: Wnt assay protocol: 293T cells were grown in DMEM-high glucose (phenol red) supplemented with 10% (v/v) FBS and 1 mM L-glutamine. […] Cells were allowed to adhere for 8-10 hours, lifted with trypsin/EDTA, centrifuged, homogenized and counted before seeding 25,000 cells/well onto 96-well plates. […] Plates were incubated for 18-20 hours and luciferase activities were determined using a Dual-Luciferase assay kit according to the manufacturer's instructions. […]
The following molecules are shown together with reported IC50 values.

| molecule | IC50 (nM) |
| --- | --- |
| O=C1CCCc2cccc(NC(=O)[C@H]3CC[C@H](N4C(=O)[C@@H]5[C@@H]6CC[C@@H](C6)[C@@H]5C4=O)CC3)c21 [Compound 14] | 19 |
| CC(=O)c1ncccc1NC(=O)[C@H]1CC[C@H](N2C(=O)[C@@H]3[C@@H]4CC[C@@H](C4)[C@@H]3C2=O)CC1 [Compound 17] | 2 |
| O=C1[C@@H]2[C@@H]3CC[C@@H](C3)[C@@H]2C(=O)N1[C@H]1CC[C@H](C(=O)Nc2ccncc2)CC1 [Compound 2] | 47 |
| O=C1[C@@H]2[C@@H]3CC[C@@H](C3)[C@@H]2C(=O)N1[C@H]1CC[C@H](C(=O)Nc2cncc(O)c2)CC1 [Compound 13] | 152 |
